# test_details: Half life of the in pig liver Esterase
# Assay type: ADME, Sus scrofa
measured_metric: half-life (min)
Numbers only, in min.

Please review the following examples before continuing.
{"smiles_representation": "CCCSc1ccc2nc(NC(=O)OC)n(C(=O)OCC)c2c1", "unit_descriptor": "min", "half-life": 6.99}
{"smiles_representation": "CCCSc1ccc2c(c1)nc(NC(=O)OC)n2COC(=O)c1ccc(N)cc1.Cl", "unit_descriptor": "min", "half-life": 45.3}

What does the data say about its half-life? Entry: `CCCSc1ccc2c(c1)nc(NC(=O)OC)n2C(=O)OCC`
6.92

* * *

# test_details: Half life of the at pH 5.0
# Format: ADME
measured_metric: half-life
Remember to quote the unit after the number.

# return half-life for each item in the list
1. CCCSc1ccc2nc(NC(=O)OC)n(C(=O)OCC)c2c1
2. CCCSc1ccc2c(c1)nc(NC(=O)OC)n2C(=O)OCC
3. CCCSc1ccc2c(c1)nc(NC(=O)OC)n2COC(=O)c1ccc(N)cc1.Cl

["2.74 h", "5.27 h", "3.84 h"]
